Quick list: IC50 per entry.
molecular target: recombinant human kinase domain of JAK1 (Homo sapiens (Human)); experiment: JAK Caliper enzyme assay at 1 mM ATP (JAK1); assay type: biochemical; settings: 1 mM ATP; read-out: IC50 (nM) JAK1;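 also: microfluidic mobility-shift readout of synthetic fluorescent peptide phosphorylation, percent product converted from peak height, inhibition relative to DMSO-only wells as uninhibited baseline, room temperature incubation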
Sequence (P23458 875-1153): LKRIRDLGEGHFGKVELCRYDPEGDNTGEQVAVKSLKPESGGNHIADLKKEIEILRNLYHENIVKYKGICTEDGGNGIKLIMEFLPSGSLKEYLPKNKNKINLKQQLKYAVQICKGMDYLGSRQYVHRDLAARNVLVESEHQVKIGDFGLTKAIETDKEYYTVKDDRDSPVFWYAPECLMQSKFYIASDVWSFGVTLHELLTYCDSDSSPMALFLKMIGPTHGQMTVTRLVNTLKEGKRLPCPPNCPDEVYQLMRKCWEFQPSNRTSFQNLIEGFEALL
# value in nM; strip the unit string

[Q] Name the recorded IC50 of the item Cn1cc(Nc2nccc(N3C[C@H]4CC[C@@H](C3)N4C(=O)Nc3ccc(C(F)(F)F)cn3)n2)cn1 [Example 48] in your answer.
[A] 300

[Q] Supply recorded IC50 for O=C(N[C@@]12C[C@@H]1CN(c1nc(Nc3cnn(CCO)c3)ncc1Cl)C2)C1CC1 [Example 107] here.
[A] 19
